# Tested on: PPARg:RXRa IVT, anti-PPARg (NR concentration 270 nM, RXRa partner concentration 90 nM)
# METHOD_DESCRIPTION: PBM binding z-score (relative to random genomic background probes); higher = stronger binding; sequences stand for … in GC…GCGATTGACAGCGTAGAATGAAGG
The entries below come with measured PBM binding z-score values attached.
Number only, please.

As a guide, the following entries are already answered.
[[record]]
sequence = "CAAACTAGGTCACGAAAGGTCAACGTCGAATGAC"
observed_measurement = 9.17

[[record]]
sequence = "GCTTACGGGTGAAAGGTTATAGCATGAATAGAAT"
observed_measurement = 4.67


q: Looking for the measured PBM binding z-score of CCGAGTAGGTAACGAGGGGGCATTCAGTGCGAAT , can you help?
a: 3.65

q: Another sequence to check: TTACCAAAGTGAAAGGTCGTTGATGCACGCCTTG
a: 1.43

q: Another sequence to check: TCGAGTAGGTTACGGGGGCATCCAGGGATGAAGA
a: 5.83

q: Another sequence to check: CAAAGTAGGTCACGAAAGGTCAAAGTCGAATGAC
a: 9.16

q: Another sequence to check: CGTCGGAGGACAGAAGGTCAGAGCTGTCCGCTTT
a: 0.25

q: Another sequence to check: CTCGAAAGGGCGTGCTCAGGTGAGTATACCAAAC
a: 0.335

q: Another sequence to check: TCGAGTAGGTTACGGGGGCATTGAGGGATGAAGA
a: 6.02

====

The entries below come with measured PBM binding z-score values attached.
# Tested on: RARg homodimer (NR concentration 270 nM)
# METHOD_DESCRIPTION: PBM binding z-score (relative to random genomic background probes); higher = stronger binding; sequences stand for … in GC…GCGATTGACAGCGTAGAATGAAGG
Number only, please.

As a guide, the following entries are already answered.
[[record]]
sequence = "CCGAGTAGGTTACGAGGGGGCATTCGGTGCGAAT"
subject_of_test = "RARg homodimer (NR concentration 270 nM)"
property = "PBM binding z-score"
observed_measurement = 2.32

[[record]]
sequence = "CAAACTAGGTCACAGAGGTCGAAGTCCGTGCGTA"
subject_of_test = "RARg homodimer (NR concentration 270 nM)"
property = "PBM binding z-score"
observed_measurement = 5.68

[[record]]
sequence = "CGAACTAGGTTACCAGGACAGTGAAGAGGTTGGA"
subject_of_test = "RARg homodimer (NR concentration 270 nM)"
property = "PBM binding z-score"
observed_measurement = 1.05

[[record]]
sequence = "TCAAGTAGGTTACGGGGGCATTCAGGGATGAAGA"
subject_of_test = "RARg homodimer (NR concentration 270 nM)"
property = "PBM binding z-score"
observed_measurement = 3.05

[[record]]
sequence = "CCTTACGGGTCACTTACAGGTTATAGCATTTGGA"
subject_of_test = "RARg homodimer (NR concentration 270 nM)"
property = "PBM binding z-score"
observed_measurement = 4.51


q: Looking for the measured PBM binding z-score of CAAACTAGGTCAAAGGTCAAAGTTGAGCCAACCA , can you help?
a: 7.7

q: Another sequence to check: GATCCAGGGTCAGCTAGAGGCCAGAGTATGGAAA
a: 4.6

q: Another sequence to check: ATATGTAGGTTAGCTGGCGTCATTCAGACTAGGC
a: 0.556

====

# Test system: LXRa:RXRa (NR concentration 270 nM, RXRa partner concentration 90 nM)
# METHOD_DESCRIPTION: PBM binding z-score (relative to random genomic background probes); higher = stronger binding; sequences stand for … in GC…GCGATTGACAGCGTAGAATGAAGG
Criterion: PBM binding z-score meeting or surpassing 4. Met: 1 (yes). Not met: 0 (no).

[[record]]
sequence = "GCTGCTAGGTCAGGTTGGTCAACTAACGGGTACG"
assigned_label = "0 (no)"

[[record]]
sequence = "ATATGTAGGTAAGGGTCATTCAGAAAGTAGGGAA"
assigned_label = "1 (yes)"

[[record]]
sequence = "CGTCCAAGGTCAGCAGGTCACTGAAAGCGACGTG"
assigned_label = "1 (yes)"

[[record]]
sequence = "GCTTACGGGTCAAAAGTTATAGCATGAATAGAAT"
assigned_label = "0 (no)"

[[record]]
sequence = "ATATGTAGGATAGGGTCATTCAGAAAGTAGGGAA"
assigned_label = "0 (no)"


q: Evaluate AGCTCTAGGTAAAAGTTCAGTGAATCCCGAGGAT : PBM binding z-score at minimum 4?
a: 0 (no)

q: Another sequence to check: TCGCGTAGGTTACGGGGGCATTCAGGGATGAAGA
a: 0 (no)

q: Another sequence to check: CCGAGTAGGTTACGAGGGGCCATTCAGTGCGAAT
a: 1 (yes)

q: Another sequence to check: GATACAAGGTCAGCTAGAGGCCAGAGTATGGAAA
a: 0 (no)

q: Another sequence to check: CTATGTAGGTTAAGGGCGTCATTCAGTTTGAAAG
a: 0 (no)

q: Another sequence to check: TCGAGTAGGTTCCGGGGGCATTCAGGGATGAAGA
a: 0 (no)

q: Another sequence to check: TAGCCTAGGTCATTCAGGGGGCAGTATAGAAAGC
a: 1 (yes)

q: Another sequence to check: CGTCCAAGGTCATAGGAGTTCAGTGAAGACAGAT
a: 1 (yes)

q: Another sequence to check: CGAACCAGGTCAAAGGACAGTGAAAGGCGACGTA
a: 0 (no)

q: Another sequence to check: TCTTGTAGGTCAAAGGTTAAGAAAGCCGAAGCCT
a: 1 (yes)

====

# Test system: RARb:RXRa (NR concentration 270 nM, RXRa partner concentration 90 nM)
# METHOD_DESCRIPTION: PBM binding z-score (relative to random genomic background probes); higher = stronger binding; sequences stand for … in GC…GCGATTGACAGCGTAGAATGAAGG
Criterion: PBM binding z-score meeting or surpassing 4. Met: 1.0. Not met: 0.0.

[[record]]
sequence = "GGAACGAGCGCAAAGTTGATAGCATCTGTCGACG"
assigned_label = 0.0

[[record]]
sequence = "ATATGTTGGTTAGGGTCATTCAGAAAGTAGGGAA"
assigned_label = 0.0

[[record]]
sequence = "CGATCTAGGTCAAAGGACAGTGAAAGGCGACGTA"
assigned_label = 0.0

[[record]]
sequence = "GATTCAGGGTCAGCTAGAGGCCAGAGTATGGAAA"
assigned_label = 1.0

[[record]]
sequence = "GCTAGTAGGTCAGTAAAAGGTCACACACCGGTCG"
assigned_label = 1.0

[[record]]
sequence = "CAAACTAGGTCAAAGGTCAGAGTCGAGCCAACCA"
assigned_label = 1.0

[[record]]
sequence = "TATACTGGGTCAAAGGCCAGAGTACGAATGTCGA"
assigned_label = 0.0

[[record]]
sequence = "ACTAGTTGGTCAGCTGAGGTCACACTCAATTCGG"
assigned_label = 0.0


q: Evaluate TCGAGTAGGTTACGGGGTCATTCAGGGATGAAGA : PBM binding z-score at minimum 4?
a: 0.0

q: Another sequence to check: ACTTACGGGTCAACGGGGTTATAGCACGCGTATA
a: 1.0

q: Another sequence to check: AATACAGGGTCACTGGGCCAGAGTAGGTACGAAT
a: 1.0

====

# Tested on: PPARg:RXRa IVT, anti-PPARg (NR concentration 270 nM, RXRa partner concentration 90 nM)
# METHOD_DESCRIPTION: PBM binding z-score (relative to random genomic background probes); higher = stronger binding; sequences stand for … in GC…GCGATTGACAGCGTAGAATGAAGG
The entries below come with measured PBM binding z-score values attached.

q: Looking for the measured PBM binding z-score of CCTACTGGGCCAAAACGGTCATTGATGCCGATAA , can you help?
a: 2.65

q: Another sequence to check: TAGCCTAGGTCATGGGCCAGTTTACCACGCGAAC
a: 3.27

====

# Tested on: LXRb:RXRa (NR concentration 270 nM, RXRa partner concentration 90 nM)
# METHOD_DESCRIPTION: PBM binding z-score (relative to random genomic background probes); higher = stronger binding; sequences stand for … in GC…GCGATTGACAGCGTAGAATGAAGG
Criterion: PBM binding z-score meeting or surpassing 1. Met: fulfilled. Not met: not fulfilled.

Example entries and their recorded answers appear below.
[[record]]
sequence = "CCTTACGGGTCAAGGTTATCGCACGGGTGGTACG"
subject_of_test = "LXRb:RXRa (NR concentration 270 nM, RXRa partner concentration 90 nM)"
assigned_label = "fulfilled"

[[record]]
sequence = "ATAGAAAGGTCGAAGGTGAGTATACCCACCCGAA"
subject_of_test = "LXRb:RXRa (NR concentration 270 nM, RXRa partner concentration 90 nM)"
assigned_label = "fulfilled"

[[record]]
sequence = "TCTCGGAGGACACGAAAGGTCTGAGCTCGACATC"
subject_of_test = "LXRb:RXRa (NR concentration 270 nM, RXRa partner concentration 90 nM)"
assigned_label = "not fulfilled"

[[record]]
sequence = "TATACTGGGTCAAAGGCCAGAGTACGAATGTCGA"
subject_of_test = "LXRb:RXRa (NR concentration 270 nM, RXRa partner concentration 90 nM)"
assigned_label = "fulfilled"


q: Evaluate CGTCCAAGGTCAATTCTAGGTCAGTGAAAGCATT : PBM binding z-score at minimum 1?
a: fulfilled

q: Another sequence to check: CGAACTAGGTCACCAGGAGAGTGAAGAGGTTGGA
a: fulfilled
